Assay: Ocular biodistribution of PS after topical eye drops in New Zealand white rabbits (HPLC)
Type: in vivo, rabbit
Conditions: New Zealand white, rabbit, sclera, topical, 5.4 % PS, 6 h; topical, Poloxamer 407 in-situ gel, 5.4% PS; read-out: PS in Sclera
Method: Results: The above PS formulation was administered topically as eye drops to the eyes of New Zealand white rabbits. The levels of PS in ocular tissues 1 h and 3 h later were determined by HPLC. The Table below summarizes the findings: Results: The above PS formulation was administered topically as eye drops to the eyes of New Zealand white rabbits. The levels of PS in ocular tissues at 2 h later were determined by HPLC. The table below summarizes the findings. […]
Reported property: concentration at 6 h (nM)

Compound: CCOP(=O)(OCC)OCCCCOC(=O)CC1=C(C)/C(=C/c2ccc([S+](C)[O-])cc2)c2ccc(F)cc21 (stereo not shown) [PS, phosphosulindac]
Reported property: concentration at 6 h
U: nM
Numeric result: 0

* * *

assay: Ocular biodistribution of PS after topical eye drops in New Zealand white rabbits (HPLC); type: in vivo, rabbit; details: New Zealand white, rabbit, retina, topical, 3 % PS, 3 h; topical, sodium alginate/Tween 80 in-situ gel, 3% PS; read-out: PS in Retina

Compound: CCOP(=O)(OCC)OCCCCOC(=O)CC1=C(C)/C(=C/c2ccc([S+](C)[O-])cc2)c2ccc(F)cc21 (stereo not shown) [PS, phosphosulindac]
concentration at 3 h / nM: 0

* * *

assay: Ocular biodistribution of PS after topical eye drops in New Zealand white rabbits (HPLC); assay type: in vivo, rabbit; settings: New Zealand white, rabbit, lens, topical, 5.4 % PS, 3 h; topical, Poloxamer 407 in-situ gel, 5.4% PS; read-out: PS in Lens
Reported property: concentration at 3 h

Compound: CCOP(=O)(OCC)OCCCCOC(=O)CC1=C(C)/C(=C/c2ccc([S+](C)[O-])cc2)c2ccc(F)cc21 (stereo not shown)
Result: 0 µM

* * *

assay: Ocular biodistribution of PS after topical eye drops in New Zealand white rabbits (HPLC); type: in vivo, rabbit; conditions: New Zealand white, rabbit, sclera, topical, 0.5 h; topical eye drops, mPEG-PLA nanoparticles; read-out: PS in Sclera

Compound: CCOP(=O)(OCC)OCCCCOC(=O)CC1=C(C)/C(=C/c2ccc([S+](C)[O-])cc2)c2ccc(F)cc21 (stereo not shown) [PS, phosphosulindac]
concentration at 0.5 h (µM): 32.1

* * *

assay: Ocular biodistribution of PS after topical eye drops in New Zealand white rabbits (HPLC); format: in vivo, rabbit; conditions: New Zealand white, rabbit, choroid, topical, 2 h; topical, 0.5% gellan gum in-situ gel, 2.4~3% PS; read-out: PS in Choroid

Compound: CCOP(=O)(OCC)OCCCCOC(=O)CC1=C(C)/C(=C/c2ccc([S+](C)[O-])cc2)c2ccc(F)cc21 (stereo not shown) [PS, phosphosulindac]
U: nM
concentration at 2 h: 0

* * *

assay: Ocular biodistribution of PS after topical eye drops in New Zealand white rabbits (HPLC); format: in vivo, rabbit; settings: New Zealand white, rabbit, sclera, topical, 2 h; topical eye drops, mPEG-PLA nanoparticles; read-out: PS in Sclera
Reported property: concentration at 2 h (µM)

Compound: CCOP(=O)(OCC)OCCCCOC(=O)CC1=C(C)/C(=C/c2ccc([S+](C)[O-])cc2)c2ccc(F)cc21 (stereo not shown)
Numeric result: 4.7
